Tested on: p38-beta
Construct: gene MAPK11
Conditions: concentration: 1 μM, replicates: in singlicate; n = 1;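 further: KINOMEscan kinase panel screen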
attribute-measured: %Inh (%)

• COc1cc(Nc2nccc(N3CCC(NC(=O)c4cc5ccccc5s4)C3)n2)cc(OC)c1OC (centres unmarked) = 2
• COc1cccc(C(=O)Nc2cccc(Oc3ccc4nc(NC(=O)C5CC5)cn4n3)c2)c1 = 16
• Cc1ccc(F)c(C(=O)Nc2cccc(-c3nn4ccccc4c3-c3ccnc(Nc4cccc(F)c4)n3)c2)c1F = 76
• COc1cc(Nc2nccc(-c3c(-c4cccc(NC(=O)c5c(F)cccc5F)c4)nn4ncccc34)n2)cc(OC)c1OC = 100
• CC(C)(C)c1ccc2nccc(Nc3cccc(O)c3)c2c1 = 0
• COc1cc(Nc2nccc(N3CCC(NC(=O)Nc4cccc(C(C)=O)c4)C3)n2)cc(OC)c1OC (centres unmarked) = 0
• O=C(O)C(F)(F)F.O=C(O)C(F)(F)F.O=c1[nH]ccc2nc(N[C@@H]3CCCNC3)nc(Nc3ccc(S(=O)(=O)N4CCOCC4)cc3)c12 = 0
• Cc1ccc(C)c(NC(=O)NC2CCN(c3ccnc(Nc4ccc(F)cc4)n3)C2)c1 (centres unmarked) = 0
• Cl.c1ccc(-c2ccc3c(Nc4ccc5[nH]ccc5c4)ccnc3c2)nc1 = 0
• c1ccc(-c2n[nH]cc2Nc2ccnc3ccccc23)nc1 = 0
• CC(=O)Nc1nc2cnc(Nc3cc(NC(=O)c4cccc(C5(C#N)CC5)c4Cl)ccc3C)nc2s1 = 19
• COc1cc(Nc2ncc3c(C)nc(-c4cc5ccccc5[nH]4)n3n2)cc(OC)c1OC = 2
• CN(C)Cc1ccc(-c2ccc3c(Nc4ccc(Oc5ccccn5)cc4)ccnc3c2)o1 = 0
• CCCCc1nn2ncccc2c1-c1ccnc(Nc2ccc(N3CCN(C)CC3)cc2)n1 = 43
• CCn1c(-c2nonc2N)nc2c(C#CC(C)(C)O)ncc(OCCCCN)c21.O=C(O)C(F)(F)F.O=C(O)C(F)(F)F = 0
• Clc1ccc(-c2nn3ncccc3c2-c2ccnc(Nc3ccc4c(c3)OCCO4)n2)cc1 = 83
• COCCOCCOc1cc2ncc3c4ccc(C#N)cc4[nH]c3c2cc1OC = 0

====

Tested on: TYK2(JH2domain-pseudokinase)
Conditions: concentration: 1 μM, replicates: in singlicate; n = 1
Quick reference for %Inh among some compounds
attribute-measured: %Inh (%)

• COc1cccc(C2=C(Nc3ccc(Cl)c(C(=O)O)c3)C(=O)NC2=O)c1 = 100
• O=C(Nc1cccc(-c2nn3ccccc3c2-c2ccnc(Nc3cccc(F)c3)n2)c1)c1c(F)ccc(F)c1Cl = 0
• Fc1ccc(-c2ncn(C3CCNCC3)c2-c2ccnc(Oc3ccc(-c4ccccc4)cc3)n2)cc1 = 84
• FC(F)(F)c1ccc(/C=C/c2cncnc2Nc2ccc3[nH]c(Cc4ccccc4)nc3c2)cc1 = 34
• Cn1cc(-c2ccc3c(c2)CCN3C(=O)Cc2cccc(Cl)c2)c2c(N)ncnc21 = 13
• Cn1cc(-c2[nH]c3cc(NC(=O)[C@H](N)C4CCCCC4)cc4c3c2C=NNC4=O)cn1 = 87
• CSc1cccc2c(-c3ccncn3)c(-c3ccc(F)cc3)nn12 = 24
• Nc1ncnc2c1nc(-c1ccccc1)n2-c1ccccc1 = 54

====

System: EPHA4
Conditions: concentration: 1 μM, replicates: in singlicate; n = 1
Threshold-based label: %Inh under 10% gives 1, %Inh not under 10% gives 0.

• COc1cc(Nc2ncc3c(C)nc(-c4cc5ccccc5[nH]4)n3n2)cc(OC)c1OC = 0
• CCS(=O)(=O)c1ccc(OC)c(Nc2nccc(-c3c(-c4cccc(NC(=O)c5c(F)cccc5F)c4)nn4ncccc34)n2)c1 = 0
• COc1cc(Nc2nccc(N3CCC(NC(=O)c4cc5ccccc5s4)C3)n2)cc(OC)c1OC (stereo not drawn) = 1
• CCCCc1nn2ncccc2c1-c1ccnc(Nc2ccc(N3CCN(C)CC3)cc2)n1 = 0
• COc1cc(Nc2nccc(-c3c(-c4cccc(NC(=O)c5c(F)cccc5F)c4)nn4ccccc34)n2)cc(OC)c1OC = 1
• O=C(Nc1ccccc1F)NC1CCN(c2ccnc(Nc3ccc(F)cc3)n2)CC1 = 1
• CN1CCN(CCCNc2nccc(-c3c(-c4ccc(F)cc4)nn4cc(C(F)(F)F)ccc34)n2)CC1 = 1
• Nc1ncc(-c2cccnc2)c2scc(-c3ccc4c(c3)CCN4C(=O)Cc3ccccc3)c12 = 1
• COc1cc(Nc2nccc(-c3c(-c4cccc(NC(=O)c5c(F)cccc5F)c4)nn4ncccc34)n2)cc(OC)c1OC = 0
• Cc1ccc(S(=O)(=O)Nc2ccc(Nc3nccc(Nc4cccc5[nH]ncc45)n3)cc2)cc1 = 0
• O=C(Nc1n[nH]c2nc(-c3ccc(O)cc3)ccc12)C1CC1 = 1
• Cn1cc(-c2[nH]c3cc(NC(=O)[C@H](N)C4CCCCC4)cc4c3c2C=NNC4=O)cn1 = 0
• NCCCC(NC(=O)c1cc(Br)c(-c2ccnc3[nH]ccc23)s1)c1ccccc1.O=C(O)C(F)(F)F.O=C(O)C(F)(F)F (stereo not drawn) = 0
• CN1CCN(Cc2cccc(-c3ccc4c(Nc5ccc(Oc6ccccc6)cc5)ccnc4c3)c2)CC1 = 1
• Cn1cc(-c2ccc3c(c2)CCN3C(=O)Cc2cccc(Cl)c2)c2c(N)ncnc21 = 1
